- Test system: 953936-095-R-J2-PDC spheroids with HUVEC/MSC, viability
- methodDescription: Anticancer human tumor 953936-095-R-J2-PDC patient-derived cervical squamous cell carcinoma cell line growth inhibition [PI3K]
- testSettings: second compound 10 µM; first compound 10 µM; hits give low values
viability, T/C: recorded values
experimentalReadout: viability, T/C

[[record]]
compound = "C#Cc1c(F)ccc2cc(O)cc(-c3ncc4c(N5CC6CCC(C5)N6)nc(OCC56CCCN5CC(F)C6)nc4c3F)c12 (configuration not stated) + CC(Nc1ncnc2nc[nH]c12)c1cc2cccc(Cl)c2c(=O)n1-c1ccccc1"
experimentalreadout = "viability, T/C"
result = "31.2%"

[[record]]
compound = "Cn1nccc1Nc1nccc(-c2ccn(C(CO)c3ccc(Cl)c(F)c3)c(=O)c2)n1 (configuration not stated) + CC(Nc1ncnc2nc[nH]c12)c1cc2cccc(Cl)c2c(=O)n1-c1ccccc1"
experimentalreadout = "viability, T/C"
result = "56.9%"

[[record]]
compound = "CC1(C)CCC(Nc2ncc(C(F)(F)F)c(-c3c[nH]c4c(P(C)(C)=O)c(C#N)ccc34)n2)CN1 (configuration not stated) + Cc1nc(NC(=O)N2CCCC2C(N)=O)sc1-c1ccnc(C(C)(C)C(F)(F)F)c1"
experimentalreadout = "viability, T/C"
result = "0.31%"

[[record]]
compound = "CNC(=O)c1ccc(N2C(=S)N(c3ccc(C#N)c(C(F)(F)F)c3)C(=O)C2(C)C)cc1F + Cc1nc(NC(=O)N2CCCC2C(N)=O)sc1-c1ccnc(C(C)(C)C(F)(F)F)c1"
experimentalreadout = "viability, T/C"
result = "10.7%"

[[record]]
compound = "CC(Cn1ccc(-c2ccc(C#N)c(Cl)c2)n1)NC(=O)c1cc(C(C)O)[nH]n1 (configuration not stated) + CC(Nc1ncnc2nc[nH]c12)c1cc2cccc(Cl)c2c(=O)n1-c1ccccc1"
experimentalreadout = "viability, T/C"
result = "58.8%"

[[record]]
compound = "C=CC(=O)N1CCN(c2nc(=O)n(-c3c(C)ccnc3C(C)C)c3nc(-c4c(O)cccc4F)c(F)cc23)C(C)C1 (configuration not stated) + Cc1nc(NC(=O)N2CCCC2C(N)=O)sc1-c1ccnc(C(C)(C)C(F)(F)F)c1"
experimentalreadout = "viability, T/C"
result = "7.49%"

[[record]]
compound = "C#Cc1c(F)ccc2cc(O)cc(-c3ncc4c(N5CC6CCC(C5)N6)nc(OCC56CCCN5CC(F)C6)nc4c3F)c12 (configuration not stated) + Cc1nc(NC(=O)N2CCCC2C(N)=O)sc1-c1ccnc(C(C)(C)C(F)(F)F)c1"
experimentalreadout = "viability, T/C"
result = "4.92%"

[[record]]
compound = "CCCS(=O)(=O)Nc1ccc(F)c(C(=O)c2c[nH]c3ncc(-c4ccc(Cl)cc4)cc23)c1F + Cc1nc(NC(=O)N2CCCC2C(N)=O)sc1-c1ccnc(C(C)(C)C(F)(F)F)c1"
experimentalreadout = "viability, T/C"
result = "0.42%"

[[record]]
compound = "CC1(C)CCC(Nc2ncc(C(F)(F)F)c(-c3c[nH]c4c(P(C)(C)=O)c(C#N)ccc34)n2)CN1 (configuration not stated) + CC(Nc1ncnc2nc[nH]c12)c1cc2cccc(Cl)c2c(=O)n1-c1ccccc1"
experimentalreadout = "viability, T/C"
result = "1.76%"

[[record]]
compound = "CC(C)NCC(C(=O)N1CCN(c2ncnc3c2C(C)CC3O)CC1)c1ccc(Cl)cc1 (configuration not stated) + CC(Nc1ncnc2nc[nH]c12)c1cc2cccc(Cl)c2c(=O)n1-c1ccccc1"
experimentalreadout = "viability, T/C"
result = "9.46%"

[[record]]
compound = "CC(Cn1ccc(-c2ccc(C#N)c(Cl)c2)n1)NC(=O)c1cc(C(C)O)[nH]n1 (configuration not stated) + Cc1nc(NC(=O)N2CCCC2C(N)=O)sc1-c1ccnc(C(C)(C)C(F)(F)F)c1"
experimentalreadout = "viability, T/C"
result = "13%"

[[record]]
compound = "C=CC(=O)N1CCN(c2nc(=O)n(-c3c(C)ccnc3C(C)C)c3nc(-c4c(O)cccc4F)c(F)cc23)C(C)C1 (configuration not stated) + CC(Nc1ncnc2nc[nH]c12)c1cc2cccc(Cl)c2c(=O)n1-c1ccccc1"
experimentalreadout = "viability, T/C"
result = "81%"

[[record]]
compound = "CNC(=O)c1ccc(N2C(=S)N(c3ccc(C#N)c(C(F)(F)F)c3)C(=O)C2(C)C)cc1F + CC(Nc1ncnc2nc[nH]c12)c1cc2cccc(Cl)c2c(=O)n1-c1ccccc1"
experimentalreadout = "viability, T/C"
result = "55%"

[[record]]
compound = "CC1(C)CCC(CN2CCN(c3ccc(C(=O)NS(=O)(=O)c4ccc(NCC5CCOCC5)c([N+](=O)[O-])c4)c(Oc4cnc5[nH]ccc5c4)c3)CC2)=C(c2ccc(Cl)cc2)C1 + Cc1nc(NC(=O)N2CCCC2C(N)=O)sc1-c1ccnc(C(C)(C)C(F)(F)F)c1"
experimentalreadout = "viability, T/C"
result = "8.8%"

[[record]]
compound = "CCCS(=O)(=O)Nc1ccc(F)c(C(=O)c2c[nH]c3ncc(-c4ccc(Cl)cc4)cc23)c1F + CC(Nc1ncnc2nc[nH]c12)c1cc2cccc(Cl)c2c(=O)n1-c1ccccc1"
experimentalreadout = "viability, T/C"
result = "1.27%"

[[record]]
compound = "Cn1nccc1Nc1nccc(-c2ccn(C(CO)c3ccc(Cl)c(F)c3)c(=O)c2)n1 (configuration not stated) + Cc1nc(NC(=O)N2CCCC2C(N)=O)sc1-c1ccnc(C(C)(C)C(F)(F)F)c1"
experimentalreadout = "viability, T/C"
result = "1.86%"

[[record]]
compound = "Cn1ncc(Cl)c1-c1cc(C(=O)NC(CN)Cc2cccc(F)c2)sc1Cl (configuration not stated) + Cc1nc(NC(=O)N2CCCC2C(N)=O)sc1-c1ccnc(C(C)(C)C(F)(F)F)c1"
experimentalreadout = "viability, T/C"
result = "1.1%"

[[record]]
compound = "Cn1ncc(Cl)c1-c1cc(C(=O)NC(CN)Cc2cccc(F)c2)sc1Cl (configuration not stated) + CC(Nc1ncnc2nc[nH]c12)c1cc2cccc(Cl)c2c(=O)n1-c1ccccc1"
experimentalreadout = "viability, T/C"
result = "5.78%"

[[record]]
compound = "C[C@@H](NC(=O)c1ncnc(N)c1Cl)c1ncc(C(=O)Nc2cc(C(F)(F)F)c(Cl)cn2)s1 + Cc1nc(NC(=O)N2CCCC2C(N)=O)sc1-c1ccnc(C(C)(C)C(F)(F)F)c1"
experimentalreadout = "viability, T/C"
result = "11.6%"

[[record]]
compound = "CC(C)NCC(C(=O)N1CCN(c2ncnc3c2C(C)CC3O)CC1)c1ccc(Cl)cc1 (configuration not stated) + Cc1nc(NC(=O)N2CCCC2C(N)=O)sc1-c1ccnc(C(C)(C)C(F)(F)F)c1"
experimentalreadout = "viability, T/C"
result = "2.61%"

[[record]]
compound = "CC1(C)CCC(CN2CCN(c3ccc(C(=O)NS(=O)(=O)c4ccc(NCC5CCOCC5)c([N+](=O)[O-])c4)c(Oc4cnc5[nH]ccc5c4)c3)CC2)=C(c2ccc(Cl)cc2)C1 + CC(Nc1ncnc2nc[nH]c12)c1cc2cccc(Cl)c2c(=O)n1-c1ccccc1"
experimentalreadout = "viability, T/C"
result = "31.1%"

[[record]]
compound = "C[C@@H](NC(=O)c1ncnc(N)c1Cl)c1ncc(C(=O)Nc2cc(C(F)(F)F)c(Cl)cn2)s1 + CC(Nc1ncnc2nc[nH]c12)c1cc2cccc(Cl)c2c(=O)n1-c1ccccc1"
experimentalreadout = "viability, T/C"
result = "55.1%"


###

- Test system: 953936-095-R-J2-PDC spheroids with HUVEC/MSC, viability
- methodDescription: Anticancer human tumor 953936-095-R-J2-PDC cell line growth inhibition [PI3K]; active = viability on the fitted dose curve at most 10% of control; inactive = the rest;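 further: spheroids exposed to compounds for seven days before read-out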
- testSettings: second compound 0.1 µM; first compound 3.16 µM
- Text: Combinatorial screen of targeted agents with the PI3K inhibitors inavolisib, alpelisib, duvelisib, and copanlisib in multi-cell type tumor spheroids A high-throughput screen of multi-cell type tumor spheroids was designed to identify active combinations of targeted small molecules and PI3K pathway inhibitors. […] Compounds. […] If the clinical Cmax for an agent had not been determined, the highest concentration tested was 10 microM. […]
Outcomes: 1 for active, 0 for inactive

[[record]]
molecule = "CC1(C)CCC(CN2CCN(c3ccc(C(=O)NS(=O)(=O)c4ccc(NCC5CCOCC5)c([N+](=O)[O-])c4)c(Oc4cnc5[nH]ccc5c4)c3)CC2)=C(c2ccc(Cl)cc2)C1 + CC(Nc1ccc2c(c1)OCCn1cc(N3C(=O)OCC3C(F)F)nc1-2)C(N)=O"
targetentity = "953936-095-R-J2-PDC spheroids with HUVEC/MSC, viability"
labelvalue = 0

[[record]]
molecule = "CCCS(=O)(=O)Nc1ccc(F)c(C(=O)c2c[nH]c3ncc(-c4ccc(Cl)cc4)cc23)c1F + COc1c(OCCCN2CCOCC2)ccc2c3n(c(=NC(=O)c4cnc(N)nc4)nc12)CCN3"
targetentity = "953936-095-R-J2-PDC spheroids with HUVEC/MSC, viability"
labelvalue = 0

[[record]]
molecule = "CCCS(=O)(=O)Nc1ccc(F)c(C(=O)c2c[nH]c3ncc(-c4ccc(Cl)cc4)cc23)c1F + Cc1nc(NC(=O)N2CCCC2C(N)=O)sc1-c1ccnc(C(C)(C)C(F)(F)F)c1"
targetentity = "953936-095-R-J2-PDC spheroids with HUVEC/MSC, viability"
labelvalue = 0

[[record]]
molecule = "CC(C)NCC(C(=O)N1CCN(c2ncnc3c2C(C)CC3O)CC1)c1ccc(Cl)cc1 (stereo not given) + COc1c(OCCCN2CCOCC2)ccc2c3n(c(=NC(=O)c4cnc(N)nc4)nc12)CCN3"
targetentity = "953936-095-R-J2-PDC spheroids with HUVEC/MSC, viability"
labelvalue = 1

[[record]]
molecule = "CC1(C)CCC(Nc2ncc(C(F)(F)F)c(-c3c[nH]c4c(P(C)(C)=O)c(C#N)ccc34)n2)CN1 (stereo not given) + CC(Nc1ccc2c(c1)OCCn1cc(N3C(=O)OCC3C(F)F)nc1-2)C(N)=O"
targetentity = "953936-095-R-J2-PDC spheroids with HUVEC/MSC, viability"
labelvalue = 0

